System: U251 CNS
Documented GI50 across a set of compounds

Consider the following illustrative entries.
* Nc1ccc(S(=O)(=O)c2ccc(N)cc2)cc1 | > 100 µM
* CCC[CH2][Sn]1([CH2]CCC)[O]CC(CN2CCCCC2)[O]1 (stereo not drawn) | 0.285 µM

# context switch: different compound, same GI50
Query: // lookup GI50 | system=U251 CNS | key= CN[C@@H](C)C(=O)N[C@H]1CCS[C@H]2CC(C)(C)[C@@H](C(=O)N[C@H]3c4ccccc4C[C@H]3OCC#CC#CCO[C@@H]3Cc4ccccc4[C@@H]3NC(=O)[C@H]3N4C(=O)[C@@H](NC(=O)[C@H](C)NC)CCS[C@H]4CC3(C)C)N2C1=O
Reply: > 50 µM
